This collection of values is drawn from patent EP0808325B1.

System: GR complex
Test: modulation of [35S]TBPS binding in rat cerebral cortex P2 homogenate
Design: species or system Sprague-Dawley rats; unit not given here
Conditions: maximum inhibition of [35S]TBPS binding; I* = Inactive
REPORTED_ENDPOINT: IMAX
Please reply with the value in numeric form only.

Solved cases (5 shown):
COMPOUND	IMAX
CC(=O)[C@H]1CC[C@H]2[C@@H]3CC[C@@H]4C[C@](C)(O)CC[C@@H]4[C@H]3CC[C@]12C	94
CC(=O)[C@H]1CC[C@H]2[C@@H]3CC[C@@H]4C[C@](C)(O)CC[C@]4(C)[C@H]3CC[C@]12C [3α-hydroxy-3β-methyl-5β-pregnan-20-one]	98
C[C@@]1(O)CC[C@@]2(C)[C@@H](CC[C@@H]3[C@@H]2CC[C@]2(C)[C@@H](C(=O)COC(=O)CCC(=O)[O-])CC[C@@H]32)C1.[Na+]	104
CC(=O)[C@H]1CC[C@H]2[C@@H]3CC[C@@H]4C[C@@](O)(C(F)(F)F)CC[C@]4(C)[C@H]3C=C[C@]12C	99
CC(=O)[C@H]1CC[C@H]2[C@@H]3CC[C@@H]4C[C@@](O)(C#CC5CC5)CC[C@]4(C)[C@H]3CC[C@]12C	94

Requested read-out: IMAX. Entry: `C[C@]12CC[C@](O)(C(F)(F)F)C[C@H]1CC[C@@H]1[C@@H]2CC[C@]2(C)[C@@H](C(=O)CO)CC[C@@H]12`
102

Now the compound C#C[C@@]1(O)CC[C@@]2(C)[C@H](CC[C@@H]3[C@@H]2CC[C@]2(C)[C@@H]([C@@H](C)O)CC[C@@H]32)C1 [3α,20β-dihydroxy-3β-ethynyl-5β-pregnane, 3β-Ethynyl-3α,20β-dihydroxy-5β-pregnane]
77

Param item: `CC(=NCCO)[C@H]1CC[C@H]2[C@@H]3CC[C@H]4C[C@](C)(O)CC[C@]4(C)[C@H]3CC[C@]12C`
93

What do we get for `CC(=O)[C@H]1CC[C@H]2[C@@H]3CC[C@H]4C[C@@](O)(CF)CC[C@]4(C)[C@H]3CC[C@]12C` ?
77

# repeat for C=C[C@@]1(O)CC[C@@]2(C)[C@H](CC[C@@H]3[C@@H]2CC[C@]2(C)[C@@H](C(C)=O)CC[C@@H]32)C1 [3β-ethenyl-3α-hydroxy-5β-pregnan-20-one]
100

And for `CC(=O)OCC(=O)[C@H]1CC[C@H]2[C@@H]3CC[C@H]4C[C@H](O)CC[C@]4(C)[C@H]3CC[C@]12C` ?
99

Repeat for the following compound: `C#C[C@@]1(O)CC[C@@]2(C)[C@H](CC[C@@H]3[C@@H]2CC[C@]2(C)[C@@H](C(=O)COC(C)=O)CC[C@@H]32)C1`
101

C#CC1(O)CCC2(C)C(CCC3C2CCC2(C)C(C(C)O)CCC32)C1 (stereo not drawn) [3α,20α-dihydroxy-3β-ethynyl-5α-pregnane, 3β-Ethynyl-3α,20α-dihydroxy-5α-pregnane] ?
56

---

System: GR complex
Test: modulation of [35S]TBPS binding in rat cerebral cortex P2 homogenate
Parameters: species or system Sprague-Dawley rats; unit not given here
Conditions: maximum inhibition of [35S]TBPS binding; I* = Inactive
Parameter threshold = 90. Response is 1 when IMAX meets or exceeds it, else 0.

Please review the following examples before continuing.
COMPOUND	LABEL_CLASS
CC(=O)[C@H]1CC[C@H]2[C@@H]3CC[C@H]4C[C@](C)(O)CC[C@]4(C)[C@H]3C=C[C@]12C	0
CC(=O)[C@H]1CC[C@H]2[C@@H]3CC[C@H]4C[C@](O)(C(F)(F)F)CC[C@]4(C)[C@H]3CC[C@]12C	0
C#C[C@@]1(O)CC[C@@]2(C)[C@H](CC[C@@H]3[C@@H]2CC[C@]2(C)[C@@H](C(C)=O)CC[C@@H]32)C1 [3β-ethynyl-3α-hydroxy-5β-pregnan-20-one, 3β-Ethynyl-3α-hydroxy-5β-pregnan-20-one]	1
C[C@]12CC[C@H]3[C@@H](CC[C@@H]4C[C@@](O)(C(F)(F)F)CC[C@@H]43)[C@@H]1CC[C@@H]2C(=O)CO	1
CC(O)C1CCC2C3CCC4CC(C)(O)CCC4(C)C3CCC12C (stereo not drawn) [3α,20β-dihydroxy-3β-methyl-5α-pregnane]	1
C#C[C@@]1(O)CC[C@@]2(C)[C@H](CC[C@@H]3[C@@H]2CC[C@]2(C)[C@@H](C(=O)COC(=O)CCC(=O)OCC(=O)[C@H]4CC[C@H]5[C@@H]6CC[C@@H]7C[C@@](O)(C#C)CC[C@]7(C)[C@H]6CC[C@]45C)CC[C@@H]32)C1	0

Please check the record CC(=O)C1CCC2C3CCC4CC(O)(C#CCCCCl)CCC4(C)C3CCC12C (centres unmarked) and state if its IMAX is at or above 90.
1

Note, next up: `CC(=O)[C@H]1CC[C@H]2[C@@H]3CC[C@@H]4C[C@@](O)(C(F)(F)F)CC[C@@H]4[C@H]3CC[C@]12C`
1

Okay, and CCC[C@H](O)[C@H]1CC[C@H]2[C@@H]3CC[C@H]4C[C@H](O)CC[C@]4(C)[C@H]3CC[C@]12C [3α,20α-dihydroxy-21-ethyl-5α-pregnane] ?
0

Same for `CC(=O)[C@H]1CC[C@H]2[C@@H]3CC[C@H]4C[C@@](O)(C(F)(F)F)CC[C@@H]4[C@H]3CC[C@]12C`
0

Try this compound next: `CC(=O)C1=CC[C@H]2[C@@H]3CC[C@@H]4C[C@](C)(O)CC[C@]4(C)[C@H]3CC[C@]12C`
1

Let us now turn to CCC(O)C1CCC2C3CCC4CC(C)(O)CCC4(C)C3CCC12C (centres unmarked)
0
